Cited source for all entries: patent US20160220569A1

- method: 14-day oral gavage toxicokinetic study in rats
- Assay type: in vivo
- appliedConditions: both sexes, rat, plasma, po, 2 mg/kg, oral 2 mg/kg, Study Day 14, Overall; read-out: t½ (converted)
measuredQuantity: half-life (h)
Report only the number, with the unit h understood.

Please report the recorded half-life for CN1CCN(c2ccc(Nc3ncc4cc5n(c4n3)C3(CCCCC3)CNC5=O)nc2)CC1 [Compound 1] . 3.46

###

- method: Compound 1 PK dosed Days 1-5 with topotecan
- Assay type: in vivo, human
- appliedConditions: human, plasma, intravenous, 200 mg/m^2 with Topotecan 1.25 mg/m^2 (Cohort 2), Day 1, Geo. Mean; read-out: Cmax
measuredQuantity: Cmax (ng/mL)
Report the figure in ng/mL without appending any unit label.

Item under review: CN1CCN(c2ccc(Nc3ncc4cc5n(c4n3)C3(CCCCC3)CNC5=O)nc2)CC1 [Compound 1] . Reported Cmax? 895
